Entries and their measured gap junctional intercellular communication follow.
- Tested on: WB-F344
- EXPERIMENT_NOTES: gap junctional intercellular communication (dye spread) relative to vehicle control (fraction of control); higher = more gap junction communication (less inhibition)
- CONDITION_DETAILS: pretreatment: D609+GJIC dysreg.
Just the number, please, no unit after it.

Known results for molecules:
{"MOLECULE": "Cc1nc2sccn2c(=O)c1CCN1CCC(=C(c2ccccc2)c2ccc(F)cc2)CC1 (compound abbreviation / co-treatment: R59022, exposure (dose, time): 30-50 µM, 10 min)", "EXPERIMENTAL_RESULT": 0.848}
{"MOLECULE": "CCCCCCCCCCCCCC(=O)O[C@@H]1[C@@H](C)[C@@]2(O)[C@@H](C=C(CO)C[C@]3(O)C(=O)C(C)=C[C@@H]23)[C@@H]2C(C)(C)[C@]12OC(C)=O [12-O-tetradecanoylphorbol-13-acetate] (compound abbreviation / co-treatment: TPA, exposure (dose, time): 10 nM, 30 min)", "EXPERIMENTAL_RESULT": 0.309}
{"MOLECULE": "Clc1cc(Cl)c(-c2cc(Cl)c(Cl)cc2Cl)cc1Cl [2,2',4,4',5,5'-Hexachlorobiphenyl] (compound abbreviation / co-treatment: PCB 153, exposure (dose, time): 50 µM, 30 min)", "EXPERIMENTAL_RESULT": 0.781}

For the next question, use this molecule.
Q) Query gap junctional intercellular communication for CCCCCCCCCCCC(=O)OCC(O)CO (centres undefined) [1-Monolaurin] (compound abbreviation / co-treatment: Lau, exposure (dose, time): 150 µM, 10 min)
A) 0.245

Reference for the values: the supplement of paper PMC4449167
